# condition-set: human, serum;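 note: human clinical chemistry: moderate when serum ALT or AST reaches 6× upper normal limit or alkaline phosphatase 1.7×, value counts indexed literature references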
measurement-type: Hepatotoxicity (moderate)

Worked cases, Hepatotoxicity (moderate) given:
{"compound": "CC(=O)[C@@]1(O)CC[C@H]2[C@@H]3C=C(C)C4=CC(=O)CC[C@@H]4[C@H]3CC[C@@]21C [NOMEGESTROL]", "Hepatotoxicity (moderate)": 0}
{"compound": "CO/N=C(\\C(=O)N[C@@H]1C(=O)N2C(C(=O)O)=C(CSc3nc(=O)c(=O)[nH]n3C)CS[C@H]12)c1csc(N)n1 [CEFTRIAXONE]", "Hepatotoxicity (moderate)": 71}
{"compound": "CC1(C)S[C@@H]2[C@H](NC(=O)[C@H](NC(=O)N3CCN(S(C)(=O)=O)C3=O)c3ccccc3)C(=O)N2[C@H]1C(=O)O [MEZLOCILLIN]", "Hepatotoxicity (moderate)": 6}
{"compound": "CC1(C)S[C@@H]2[C@H](NC(=O)[C@H](NC(=O)N3CCNC3=O)c3ccccc3)C(=O)N2[C@H]1C(=O)O [AZLOCILLIN]", "Hepatotoxicity (moderate)": 3}

Ask: Dear colleague, I am looking for the recorded Hepatotoxicity (moderate) of the following compound: CO[C@@]1(NC(=O)CSC(F)F)C(=O)N2C(C(=O)O)=C(CSc3nnnn3CCO)CO[C@@H]21 [FLOMOXEF]
Reply: 55

Ask: Dear colleague, I am looking for the recorded Hepatotoxicity (moderate) of the following compound: C[C@@H]1[C@H](O)[C@@H](C)/C=C/C=C/C=C/C=C/C=C/C=C/C=C/[C@H](O[C@@H]2O[C@H](C)[C@@H](O)[C@H](N)[C@@H]2O)C[C@@H]2O[C@](O)(C[C@@H](O)C[C@@H](O)[C@H](O)CC[C@@H](O)C[C@@H](O)CC(=O)O[C@H]1C)C[C@H](O)[C@H]2C(=O)O [AMPHOTERICIN B]
Reply: 28

Ask: Dear colleague, I am looking for the recorded Hepatotoxicity (moderate) of the following compound: CN1c2ccccc2C(NCCCCCCC(=O)O)c2ccc(Cl)cc2S1(=O)=O (stereo unspecified) [TIANEPTINE]
Reply: 0

Ask: Dear colleague, I am looking for the recorded Hepatotoxicity (moderate) of the following compound: CNC1CCCN(c2c(F)cc3c(=O)c(C(=O)O)cn(C4CC4)c3c2OC)C1 (stereo unspecified) [BALOFLOXACIN]
Reply: 23

Ask: Dear colleague, I am looking for the recorded Hepatotoxicity (moderate) of the following compound: Oc1ncc(N(CCCl)CCCl)c(O)n1 [URACIL MUSTARD]
Reply: 0

Ask: Dear colleague, I am looking for the recorded Hepatotoxicity (moderate) of the following compound: C(=N\NC1=NCCN1)/c1c2ccccc2c(/C=N/NC2=NCCN2)c2ccccc12 [BISANTRENE]
Reply: 4

Ask: Dear colleague, I am looking for the recorded Hepatotoxicity (moderate) of the following compound: CCN(CC)CCn1c(-c2ccccc2)noc1=N [IMOLAMINE]
Reply: 0

Ask: Dear colleague, I am looking for the recorded Hepatotoxicity (moderate) of the following compound: CN1CCN(C2=Nc3cc(Cl)ccc3Nc3ccccc32)CC1 [CLOZAPINE]
Reply: 26

Ask: Dear colleague, I am looking for the recorded Hepatotoxicity (moderate) of the following compound: CC(C)(C)c1ccc(C(O)CCCN2CCC(C(O)(c3ccccc3)c3ccccc3)CC2)cc1 (stereo unspecified) [TERFENADINE]
Reply: 1

Ask: Dear colleague, I am looking for the recorded Hepatotoxicity (moderate) of the following compound: COc1ccc(C(=O)N2CCN(c3ccc4c(c3)CCC(=O)N4)CC2)cc1OC [VESNARINONE]
Reply: 1

Ask: Dear colleague, I am looking for the recorded Hepatotoxicity (moderate) of the following compound: CCn1cc(C(=O)O)c(=O)c2cnc(N3CCNCC3)nc21 [PIPEMIDIC ACID]
Reply: 1

Ask: Dear colleague, I am looking for the recorded Hepatotoxicity (moderate) of the following compound: "[Se]"
Reply: 0
